This section presents compounds with their documented Ratio IC50 values.
Tested on: Plasmodium falciparum
Test: Selectivity ratio of IC50 for chloroquine-sensitive late gametocytic stage (III to V) of Plasmodium falciparum 3D7 to IC50 for chloroquine-sensitive asexual blood stage of Plasmodium falciparum 3D7
Format: functional
value kind: Ratio IC50

                                         mol            test_system  reported_measurement
 0  Nc1ccc(-c2ccc3ncc4[nH]c(=O)n(-c5cccc(C(F)(F)F)c5)c4c3c2)cc1  Plasmodium falciparum                  11.6
 1  Cn1c(=O)n(-c2cccc(C(F)(F)F)c2)c2c3cc(-c4ccc(F)cc4)ccc3ncc21  Plasmodium falciparum                     1
 2  Cn1c(=O)n(-c2cccc(C(F)(F)F)c2)c2c3cc(-c4cccc(C#N)c4)ccc3ncc21  Plasmodium falciparum                  11.7
 3  Cn1c(=O)n(-c2cccc(C(F)(F)F)c2)c2c3cc(-c4ccc(C(N)=O)cc4)ccc3ncc21  Plasmodium falciparum                    10
 4  CS(=O)(=O)c1ccc(-c2ccc3ncc4[nH]c(=O)n(-c5cccc(C(F)(F)F)c5)c4c3c2)cc1  Plasmodium falciparum                     1
 5  Nc1cccc(-c2ccc3ncc4[nH]c(=O)n(-c5cccc(C(F)(F)F)c5)c4c3c2)c1  Plasmodium falciparum                     1
 6  Cn1c(=O)n(-c2cccc(C(F)(F)F)c2)c2c3cc(-c4ccc(S(C)(=O)=O)cc4)ccc3ncc21  Plasmodium falciparum                     1
 7  Cn1c(=O)n(-c2cccc(C(F)(F)F)c2)c2c3cc(-c4ccc(O)cc4)ccc3ncc21  Plasmodium falciparum                     1
 8  O=c1[nH]c2cnc3ccc(-c4ccc(Cl)cc4)cc3c2n1-c1cccc(C(F)(F)F)c1  Plasmodium falciparum                     1
 9  Cn1c(=O)n(-c2cccc(C(F)(F)F)c2)c2c3cc(-c4ccc(Cl)cc4)ccc3ncc21  Plasmodium falciparum                     1
10  NS(=O)(=O)c1ccc(-c2ccc3ncc4[nH]c(=O)n(-c5cccc(C(F)(F)F)c5)c4c3c2)cc1  Plasmodium falciparum                     1
11  CCn1c(=O)n(-c2cccc(C(F)(F)F)c2)c2c3cc(-c4ccc(Cl)cc4)ccc3ncc21  Plasmodium falciparum                     1
12  N#Cc1ccc(-c2ccc3ncc4[nH]c(=O)n(-c5cccc(C(F)(F)F)c5)c4c3c2)cc1  Plasmodium falciparum                     1
13  O=c1[nH]c2cnc3ccc(-c4ccc(O)cc4)cc3c2n1-c1cccc(C(F)(F)F)c1  Plasmodium falciparum                     1
14  Cc1ccc(-c2ccc3ncc4c(c3c2)n(-c2cccc(C(F)(F)F)c2)c(=O)n4C)cc1  Plasmodium falciparum                     1
15  O=c1[nH]c2cnc3ccc(-c4ccccc4)cc3c2n1-c1cccc(C(F)(F)F)c1  Plasmodium falciparum                   4.6
16  Cn1c(=O)n(-c2cccc(C(F)(F)F)c2)c2c3cc(-c4ccccc4)ccc3ncc21  Plasmodium falciparum                  10.7
17  N#Cc1cccc(-c2ccc3ncc4[nH]c(=O)n(-c5cccc(C(F)(F)F)c5)c4c3c2)c1  Plasmodium falciparum                     1
18  NC(=O)c1ccc(-c2ccc3ncc4[nH]c(=O)n(-c5cccc(C(F)(F)F)c5)c4c3c2)cc1  Plasmodium falciparum                     1
19  Cn1c(=O)n(-c2cccc(C(F)(F)F)c2)c2c3cc(-c4ccc(C#N)cc4)ccc3ncc21  Plasmodium falciparum                     1
20  Cc1ccc(-c2ccc3ncc4[nH]c(=O)n(-c5cccc(C(F)(F)F)c5)c4c3c2)cc1  Plasmodium falciparum                     1
21  Cn1c(=O)n(-c2cccc(C(F)(F)F)c2)c2c3cc(-c4cccc(N)c4)ccc3ncc21  Plasmodium falciparum                     1
22  O=c1[nH]c2cnc3ccc(-c4ccc(F)cc4)cc3c2n1-c1cccc(C(F)(F)F)c1  Plasmodium falciparum                     1
23  Cn1c(=O)n(-c2cccc(C(F)(F)F)c2)c2c3cc(-c4ccc(N)cc4)ccc3ncc21  Plasmodium falciparum                     1
24  Cn1c(=O)n(-c2cccc(C(F)(F)F)c2)c2c3cc(-c4ccc(N)nc4)ccc3ncc21  Plasmodium falciparum                     4
25  Cn1c(=O)n(-c2cccc(C(F)(F)F)c2)c2c3cc(-c4ccc(S(N)(=O)=O)cc4)ccc3ncc21  Plasmodium falciparum                     1
